Value source: patent US20020102262A1

assay_target: Col type II (Homo sapiens, UniProt P02458)
Sequence (P02458 182-1241 limits assumed): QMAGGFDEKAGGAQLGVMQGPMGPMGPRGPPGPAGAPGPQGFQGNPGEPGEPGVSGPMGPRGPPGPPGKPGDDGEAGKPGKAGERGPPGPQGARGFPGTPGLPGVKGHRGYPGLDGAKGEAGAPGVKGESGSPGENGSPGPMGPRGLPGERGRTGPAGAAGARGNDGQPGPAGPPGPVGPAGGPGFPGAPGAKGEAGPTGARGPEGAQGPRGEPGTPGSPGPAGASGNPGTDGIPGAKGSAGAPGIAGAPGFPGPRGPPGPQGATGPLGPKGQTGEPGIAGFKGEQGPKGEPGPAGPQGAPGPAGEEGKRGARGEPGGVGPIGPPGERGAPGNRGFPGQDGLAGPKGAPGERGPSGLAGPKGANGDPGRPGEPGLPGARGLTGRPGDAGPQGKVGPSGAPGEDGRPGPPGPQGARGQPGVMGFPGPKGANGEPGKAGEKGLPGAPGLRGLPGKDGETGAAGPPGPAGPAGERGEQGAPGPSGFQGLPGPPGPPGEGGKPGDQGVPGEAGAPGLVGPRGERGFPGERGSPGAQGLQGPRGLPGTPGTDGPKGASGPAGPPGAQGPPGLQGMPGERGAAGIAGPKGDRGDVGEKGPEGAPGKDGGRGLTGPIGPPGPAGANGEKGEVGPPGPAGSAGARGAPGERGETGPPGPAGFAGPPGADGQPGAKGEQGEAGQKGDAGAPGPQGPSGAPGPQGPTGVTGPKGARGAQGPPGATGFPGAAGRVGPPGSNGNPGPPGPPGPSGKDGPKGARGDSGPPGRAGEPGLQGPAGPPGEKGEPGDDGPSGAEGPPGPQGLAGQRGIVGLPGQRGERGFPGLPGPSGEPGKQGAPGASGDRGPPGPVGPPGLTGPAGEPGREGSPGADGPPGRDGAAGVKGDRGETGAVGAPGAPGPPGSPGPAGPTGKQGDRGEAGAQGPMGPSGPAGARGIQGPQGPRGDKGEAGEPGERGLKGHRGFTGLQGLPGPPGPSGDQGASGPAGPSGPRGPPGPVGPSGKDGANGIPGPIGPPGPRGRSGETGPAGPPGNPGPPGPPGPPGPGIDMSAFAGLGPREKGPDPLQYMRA
procedure_details: Biosensor analysis of CBD(151-318) and single-site mutants binding to Col type II
study_conditions: approximate binding ratio
property_measured: BR
Output spec: single numeric token, no unit.

Example entries and their recorded answers appear below.
molecule="191F→A (protein) ITSGNKSTNVTVHKSEAGTSSVFYYKTGDMLPEDTTHVRWALNINNEKSYVSKDITIKDQIQGGQQLDLSTLNINVTGTHSNYYSGQSAITDFEKAFPGSKITVDNTKNTIDVTIPQGYGSYNSFSINYKTKITNEQQKEFVNNSQAWYQEHGKEEVNGKSFNHTVHN" endpoint_result=10
molecule="225N→K (protein) ITSGNKSTNVTVHKSEAGTSSVFYYKTGDMLPEDTTHVRWFLNINNEKSYVSKDITIKDQIQGGQQLDLSTLNIKVTGTHSNYYSGQSAITDFEKAFPGSKITVDNTKNTIDVTIPQGYGSYNSFSINYKTKITNEQQKEFVNNSQAWYQEHGKEEVNGKSFNHTVHN" endpoint_result=10
molecule="233Y→A (protein) ITSGNKSTNVTVHKSEAGTSSVFYYKTGDMLPEDTTHVRWFLNINNEKSYVSKDITIKDQIQGGQQLDLSTLNINVTGTHSNAYSGQSAITDFEKAFPGSKITVDNTKNTIDVTIPQGYGSYNSFSINYKTKITNEQQKEFVNNSQAWYQEHGKEEVNGKSFNHTVHN" endpoint_result=11
molecule="223N→K (protein) ITSGNKSTNVTVHKSEAGTSSVFYYKTGDMLPEDTTHVRWFLNINNEKSYVSKDITIKDQIQGGQQLDLSTLKINVTGTHSNYYSGQSAITDFEKAFPGSKITVDNTKNTIDVTIPQGYGSYNSFSINYKTKITNEQQKEFVNNSQAWYQEHGKEEVNGKSFNHTVHN" endpoint_result=10
molecule="221T→K (protein) ITSGNKSTNVTVHKSEAGTSSVFYYKTGDMLPEDTTHVRWFLNINNEKSYVSKDITIKDQIQGGQQLDLSKLNINVTGTHSNYYSGQSAITDFEKAFPGSKITVDNTKNTIDVTIPQGYGSYNSFSINYKTKITNEQQKEFVNNSQAWYQEHGKEEVNGKSFNHTVHN" endpoint_result=9

Q) # return recorded BR for entry 278N→K (protein) ITSGNKSTNVTVHKSEAGTSSVFYYKTGDMLPEDTTHVRWFLNINNEKSYVSKDITIKDQIQGGQQLDLSTLNINVTGTHSNYYSGQSAITDFEKAFPGSKITVDNTKNTIDVTIPQGYGSYNSFSIKYKTKITNEQQKEFVNNSQAWYQEHGKEEVNGKSFNHTVHN
A) 9

Q) # return recorded BR for entry 212Q→A (protein) ITSGNKSTNVTVHKSEAGTSSVFYYKTGDMLPEDTTHVRWFLNINNEKSYVSKDITIKDQIAGGQQLDLSTLNINVTGTHSNYYSGQSAITDFEKAFPGSKITVDNTKNTIDVTIPQGYGSYNSFSINYKTKITNEQQKEFVNNSQAWYQEHGKEEVNGKSFNHTVHN
A) 10
